Source of measurements: patent US20240158446A1

measured.target: GDP-bound KRAS wild-type protein (Homo sapiens)
Sequence (P01116 whole entry): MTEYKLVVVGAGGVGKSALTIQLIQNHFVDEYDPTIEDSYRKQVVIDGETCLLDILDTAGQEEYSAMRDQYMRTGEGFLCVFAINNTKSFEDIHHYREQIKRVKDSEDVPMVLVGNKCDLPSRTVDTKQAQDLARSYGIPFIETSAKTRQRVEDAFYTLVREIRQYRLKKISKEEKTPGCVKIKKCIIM
procedure.details: Binding to KRAS by surface plasmon resonance (SPR), Single Cycle Kinetics
assay.conditions: SPR Single Cycle Kinetics, GDP-bound KRAS wild-type protein, 1:1 binding model; read-out: KRAS KD
Where a SMILES comes first, the peptide text is derived from it. Bridges are numbered along the chain shown (N, C = ends). [ ]: non-standard residue; d: D form. The star is where a group is joined. hPhe(3-Cl-4-CF3) = N[C@@H](CCc1ccc(C(F)(F)F)c(Cl)c1)C(=O)O; NPrPhe(4-CF3) = CCCN[C@@H](Cc1ccc(C(F)(F)F)cc1)C(=O)O; NMeGly(cPent) = CN[C@H](C(=O)O)C1CCCC1; Hyp = O=C(O)[C@@H]1C[C@@H](O)CN1; NMeL = CN[C@@H](CC(C)C)C(=O)O; Morpholide = C1CN(*)CCO1; Ac5c = NC1(C(=O)O)CCCC1; Aze = O=C(O)[C@@H]1CCN1; Sar = CNCC(=O)O
experimental.readout: Kd (nM)
One number for each entry, in nM.

>>> reading("CCO[C@@H]1C[C@H]2C(=O)NC3(CCCC3)C(=O)N(C)[C@@H](C3CCCC3)C(=O)N(C)[C@H](C(=O)N(C)C)CC(=O)N(C)[C@@H](CC(C)C)C(=O)N[C@@H]([C@@H](C)CC)C(=O)N(C)CC(=O)N(C)[C@H]3CCCCN(C3=O)[C@@H](Cc3ccc(C(F)(F)F)cc3)C(=O)N(C)CC(=O)N[C@@H](CCc3cc(F)c(C(F)(F)F)c(F)c3)C(=O)N2C1")
0.017
>>> reading("CCO[C@@H]1C[C@H]2C(=O)NC3(CCC3)C(=O)N(C)[C@@H](C3CCCC3)C(=O)N(C)[C@H](C(=O)N(C)C)CC(=O)N(C)[C@@H](CCOC)C(=O)N[C@@H]([C@@H](C)CC)C(=O)N(C)CC(=O)N(C)[C@H]3CCCCN(C3=O)[C@@H](Cc3ccc(C(F)(F)F)cc3)C(=O)N(C)CC(=O)N[C@@H](CCc3cc(F)c(C(F)(F)F)c(F)c3)C(=O)N2C1")
0.027

Next item in the queue.
Exam item: Kindly indicate its recorded Kd. Item: CCCN1C(=O)[C@@H]2CCN2C(=O)CN(C)C(=O)[C@H]([C@@H](C)CC)NC(=O)[C@H](CC(C)C)N(C)C(=O)C[C@@H](C(=O)N2CCOCC2)NC(=O)[C@H](C2CCCC2)N(C)C(=O)C2(CCCC2)NC(=O)[C@@H]2C[C@@H](OCC)CN2C(=O)[C@H](CCc2ccc(C(F)(F)F)c(Cl)c2)NC(=O)CN(C)C(=O)[C@@H]1Cc1ccc(C(F)(F)F)cc1 [PP0353] ([NMeL]I[Sar][Aze][NPrPhe(4-CF3)][Sar][hPhe(3-Cl-4-CF3)][Hyp](Et)[Ac5c][NMeGly(cPent)]D-Morpholide; lactam N-11)
Marked response: 0.47

----------
Reported pIC50, human lung cancer strain NCI-H441.
One number for each entry, as −log10 of the molar value.

Some solved entries appear below for comparison.
>>> reading("CCO[C@@H]1C[C@H]2C(=O)NC3(CCC3)C(=O)N(C)[C@@H](C(CC)CC)C(=O)N(C)[C@H](C(=O)N(C)C)CC(=O)N(C)[C@@H](CC(C)C)C(=O)N[C@@H]([C@@H](C)CC)C(=O)N(C)CC(=O)N(C)[C@H]3C/C=C\\CCN(C3=O)[C@@H](CC3CCC(F)(F)CC3)C(=O)N(C)CC(=O)N[C@@H](CCc3cc(F)c(C(F)(F)F)c(F)c3)C(=O)N2C1")
7.35
>>> reading("CCO[C@@H]1C[C@H]2C(=O)NC3(CC(C)(C)C3)C(=O)N(C)[C@@H](C(CC)CC)C(=O)N(C)[C@H](C(=O)N(C)C)CC(=O)N(C)[C@@H](COC)C(=O)N[C@@H]([C@@H](C)CC)C(=O)N(C3CC3)CC(=O)N(C)[C@H]3C/C=C\\CCN(C3=O)[C@@H](CC3CCCCC3)C(=O)N(C)CC(=O)N[C@@H](CCc3cc(F)c(C(F)(F)F)c(F)c3)C(=O)N2C1")
6.65
>>> reading("CCOC[C@H]1C(=O)N[C@@H]([C@@H](C)CC)C(=O)N(C)CC(=O)N(C)[C@H]2C/C=C\\CCN(C2=O)[C@@H](Cc2ccc(C)cc2)C(=O)N(C)CC(=O)N[C@@H](CCc2cc(F)c(C(F)(F)F)c(F)c2)C(=O)N2C[C@H](OCC)C[C@H]2C(=O)NC2(CC(C)(C)C2)C(=O)N(C)[C@@H](C2CCCC2)C(=O)N(C)[C@H](C(=O)N(C)CC)CC(=O)N1C")
8.39
>>> reading("CCO[C@@H]1C[C@H]2C(=O)NC3(CC(C)(C)C3)C(=O)N(C)[C@@H](C(CC)CC)C(=O)N(C)[C@H](C(=O)N(C)C)CC(=O)N(C)[C@H]3CCC/C=C/c4ccc(cc4)C[C@@H](C(=O)N(C)CC(=O)N[C@@H](CCc4cc(F)c(C(F)(F)F)c(F)c4)C(=O)N2C1)N1CC/C=C\\C[C@@H](C1=O)N(C)C(=O)CN(C1CC1)C(=O)[C@H]([C@@H](C)CC)NC3=O")
8.11
>>> reading("CC[C@H](C)[C@@H]1NC(=O)[C@H](CC2CC2)N(C)C(=O)C[C@@H](C)N(C)C(=O)[C@H](C2CCCC2)N(C)C(=O)C2(CCC2)NC(=O)[C@H](CCC(F)F)N(C)C(=O)[C@H](CCc2cc(F)c(C(F)(F)F)c(F)c2)NC(=O)CN(C)C(=O)[C@H](Cc2ccc(C(F)(F)F)cc2)N2CC/C=C\\C[C@@H](C2=O)N(C)C(=O)CN(C)C1=O")
6.30

Answer for every listed entry: what is its pIC50? The entries follow.
1. CC[C@H](C)[C@@H]1NC(=O)[C@H](CC(C)C)N(C)C(=O)C[C@@H](C(=O)N2CCOCC2)N(C)C(=O)[C@H](C2CCCC2)N(C)C(=O)C2(CCC2)NC(=O)[C@@H]2CCCN2C(=O)[C@H](CCc2cc(F)c(C(F)(F)F)c(F)c2)NC(=O)CN(C)C(=O)[C@H](Cc2ccc(C(F)(F)F)cc2)N2C[C@H](C)[C@H](C)C[C@@H](C2=O)N(C)C(=O)[C@@H]2CCN2C1=O
2. CCCCCC[C@H]1C(=O)N[C@@H]([C@@H](C)CC)C(=O)N(C)CC(=O)N(C)[C@H]2C/C=C\CCN(C2=O)[C@@H](Cc2ccc(C(F)(F)F)cc2)C(=O)N(C)CC(=O)N[C@@H](CCc2ccc(Cl)c(Cl)c2)C(=O)N2C[C@H](OCC)C[C@H]2C(=O)NC2(CCC2)C(=O)N(C)[C@@H](C2CCCC2)C(=O)N(C)[C@H](C(=O)N(C)C)CC(=O)N1C

Marked response:
[7.53, 7.29]
